Source listed as patent US10413632B2.

Text: The side chain amino groups of certain amino acid can serve as nucleophiles for the Michael addition to enones. Generally, amino acids are flaky or crystalline solids at room temperature, thus, they should be dissolved in a liquid to effectively participate in the set reaction.
Each entry below lists one item and its recorded solubility (w/w) in DAB value.
measuredProperty: solubility (w/w) in DAB (%)

* N[C@@H](CS)C(=O)O | 19.5
* NCCCC[C@H](N)C(=O)O | 16.1
* N[C@@H](Cc1c[nH]c2ccccc12)C(=O)O | 29.4
* N[C@@H](Cc1ccccc1)C(=O)O | 28
